Cited source for all entries: paper PMC5540273

I'd be grateful if you could share measured %Inh for these entries.
- Test system: CAMK2G;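 further: KINOMEscan kinase panel screen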
- experimental_parameters: concentration: 1 μM, replicates: in singlicate; n = 1

[[record]]
smiles_text = "O=c1cc(N2CCOCC2)nc2n(Cc3cccc(Cl)c3)ccn12"
assay_metric = "%Inh"
result = "3%"


Could you report %Inh for every entry in the following list?
1. CC(=O)Nc1n[nH]c2ncc(-c3ccccc3)cc12
2. CNc1nccc(-c2c(-c3ccc(F)cc3)ncn2CCCN2CCOCC2)n1
3. CS(=O)(=O)CCNCc1nc(-c2ccc3ncnc(Nc4ccc(OCc5cccc(F)c5)c(Cl)c4)c3c2)cs1.Cl
4. O=C(c1ccc(-c2cc(-c3c[nH]nc3-c3ccccn3)ccn2)cc1)N1CCCC1

1. 17%
2. 16%
3. 22%
4. 56%
